Attribution: paper PMC8290231

TESTED ON: FGFR2 (Homo sapiens, UniProt P21802)
Sequence (P21802 22-821): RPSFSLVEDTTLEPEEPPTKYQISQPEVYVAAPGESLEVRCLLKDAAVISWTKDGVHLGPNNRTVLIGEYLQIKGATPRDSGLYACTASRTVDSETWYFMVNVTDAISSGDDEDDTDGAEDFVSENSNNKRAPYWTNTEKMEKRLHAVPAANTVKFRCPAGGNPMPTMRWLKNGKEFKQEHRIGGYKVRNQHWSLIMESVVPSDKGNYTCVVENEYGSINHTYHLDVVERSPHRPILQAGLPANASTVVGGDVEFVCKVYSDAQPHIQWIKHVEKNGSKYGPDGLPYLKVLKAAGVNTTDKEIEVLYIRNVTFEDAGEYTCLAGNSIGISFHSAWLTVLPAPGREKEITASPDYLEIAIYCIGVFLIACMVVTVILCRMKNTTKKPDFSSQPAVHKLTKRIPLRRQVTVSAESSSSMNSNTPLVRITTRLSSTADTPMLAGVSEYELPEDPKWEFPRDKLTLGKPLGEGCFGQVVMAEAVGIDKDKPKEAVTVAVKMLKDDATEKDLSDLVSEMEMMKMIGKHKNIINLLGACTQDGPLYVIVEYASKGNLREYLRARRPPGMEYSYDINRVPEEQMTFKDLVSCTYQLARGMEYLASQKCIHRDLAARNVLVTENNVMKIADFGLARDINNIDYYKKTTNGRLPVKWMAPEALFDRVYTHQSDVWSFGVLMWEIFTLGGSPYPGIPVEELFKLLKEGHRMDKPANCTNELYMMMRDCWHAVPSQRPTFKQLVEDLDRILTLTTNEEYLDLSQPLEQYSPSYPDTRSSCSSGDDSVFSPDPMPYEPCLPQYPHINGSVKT
ASSAY NOTES: KINOMEscan binding affinity assay
METRIC: Kd (nM)
Unit nM implied. Number only.

Entry under review: Cc1ccc(C(=O)Nc2ccc(CN3CCN(C)CC3)c(C(F)(F)F)c2)cc1C#Cc1cnc2[nH]ncc2c1 [GZD824] . Reported Kd? 15.5

###

TESTED ON: FGFR4 (Homo sapiens, UniProt P22455)
Sequence (P22455 22-802): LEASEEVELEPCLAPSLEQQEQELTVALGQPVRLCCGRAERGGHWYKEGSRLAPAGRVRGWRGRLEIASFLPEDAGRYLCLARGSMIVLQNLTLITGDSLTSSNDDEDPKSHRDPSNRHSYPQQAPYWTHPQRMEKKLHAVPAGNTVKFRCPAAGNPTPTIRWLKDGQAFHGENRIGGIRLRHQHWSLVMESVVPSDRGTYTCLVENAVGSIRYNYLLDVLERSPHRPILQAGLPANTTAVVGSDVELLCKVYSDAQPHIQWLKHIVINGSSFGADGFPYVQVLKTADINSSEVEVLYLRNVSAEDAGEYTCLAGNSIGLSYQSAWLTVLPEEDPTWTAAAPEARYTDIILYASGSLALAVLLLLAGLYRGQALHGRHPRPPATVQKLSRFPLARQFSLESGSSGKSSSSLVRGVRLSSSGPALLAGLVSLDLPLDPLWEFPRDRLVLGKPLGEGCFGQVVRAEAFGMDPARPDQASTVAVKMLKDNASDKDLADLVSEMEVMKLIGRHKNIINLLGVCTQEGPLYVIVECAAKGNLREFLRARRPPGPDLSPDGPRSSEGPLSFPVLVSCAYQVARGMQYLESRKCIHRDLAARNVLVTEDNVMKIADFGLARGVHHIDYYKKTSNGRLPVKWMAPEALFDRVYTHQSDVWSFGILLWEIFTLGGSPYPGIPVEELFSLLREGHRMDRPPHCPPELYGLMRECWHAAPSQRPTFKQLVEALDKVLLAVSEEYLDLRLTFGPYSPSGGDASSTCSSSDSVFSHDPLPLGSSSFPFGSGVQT
ASSAY NOTES: KINOMEscan binding affinity assay
METRIC: Kd (nM)
The figure you give is taken to be in nM; do not add the unit.

Given the entry `Cc1ccc(C(=O)Nc2ccc(CN3CCN(C)CC3)c(C(F)(F)F)c2)cc1C#Cc1cnc2[nH]ncc2c1` , report its measured Kd. 19

###

TESTED ON: FGFR2 (Homo sapiens, UniProt P21802)
ASSAY NOTES: FRET-based Z′-Lyte kinase assay
STUDY CONDITIONS: Figure 1B curve fit
METRIC: EC50 (nM)
Number in nM, nothing else.

Which EC50 value is on record for `Cc1ccc(C(=O)Nc2ccc(CN3CCN(C)CC3)c(C(F)(F)F)c2)cc1C#Cc1cnc2[nH]ncc2c1` ? 2.72

###

Tested on: Ba/F3‐FGFR1‐K656E
ASSAY NOTES: CCK-8 proliferation assay in Ba/F3 stable cells
Type: cell-based
STUDY CONDITIONS: Mus musculus, BaF3; bound stated; read-out: IC50 Ba/F3‐FGFR1‐K656E
METRIC: IC50

Consider the compound shown here: `CCN1CCN(c2ccc(Nc3cc(N(C)C(=O)Nc4c(Cl)c(OC)cc(OC)c4Cl)ncn3)cc2)CC1` What is its recorded IC50? > 330 nM

###

Tested on: A204
ASSAY NOTES: CCK-8 cell proliferation assay
Assay type: cell-based
STUDY CONDITIONS: Homo sapiens, A204, 72 h, read-out: antiproliferative IC50, A204
METRIC: IC50 (nM)
Numbers only; they are read as nM.

Please report the recorded IC50 for `Cc1ccc(C(=O)Nc2ccc(CN3CCN(C)CC3)c(C(F)(F)F)c2)cc1C#Cc1cnc2cccnn12` . 169

###

TESTED ON: FGFR3‐G697C (Homo sapiens, UniProt P22607, G697C)
Sequence (P22607 23-806 G697C): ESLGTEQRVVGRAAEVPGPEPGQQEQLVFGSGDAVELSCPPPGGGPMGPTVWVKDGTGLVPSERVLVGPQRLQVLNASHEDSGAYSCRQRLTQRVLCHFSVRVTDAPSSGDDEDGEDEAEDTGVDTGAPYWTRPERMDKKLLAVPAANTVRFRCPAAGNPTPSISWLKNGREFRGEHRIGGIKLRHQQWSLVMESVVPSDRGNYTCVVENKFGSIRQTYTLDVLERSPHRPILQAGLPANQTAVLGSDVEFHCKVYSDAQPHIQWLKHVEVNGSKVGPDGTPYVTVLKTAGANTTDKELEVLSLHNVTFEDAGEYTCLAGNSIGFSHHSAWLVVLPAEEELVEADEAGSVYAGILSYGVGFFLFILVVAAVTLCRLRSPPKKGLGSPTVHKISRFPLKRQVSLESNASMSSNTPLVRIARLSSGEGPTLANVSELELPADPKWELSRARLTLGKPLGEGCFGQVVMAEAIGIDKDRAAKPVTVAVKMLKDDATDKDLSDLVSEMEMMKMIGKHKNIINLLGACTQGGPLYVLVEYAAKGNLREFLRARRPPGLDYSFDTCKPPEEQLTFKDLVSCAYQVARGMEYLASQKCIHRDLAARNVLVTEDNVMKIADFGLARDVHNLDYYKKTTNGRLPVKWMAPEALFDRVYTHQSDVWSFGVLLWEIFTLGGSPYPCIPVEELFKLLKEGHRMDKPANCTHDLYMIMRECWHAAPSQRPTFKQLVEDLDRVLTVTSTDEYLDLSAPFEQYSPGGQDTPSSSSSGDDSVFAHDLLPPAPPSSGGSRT
ASSAY NOTES: KINOMEscan binding affinity assay
METRIC: pKd
Remember the convention: pKd equals -log10 of concentration in molar.

Form: Entry = `Cc1ccc(C(=O)Nc2ccc(CN3CCN(C)CC3)c(C(F)(F)F)c2)cc1C#Cc1cnc2[nH]ncc2c1` | System = FGFR3‐G697C (Homo sapiens, UniProt P22607, G697C) | pKd = ____ 7.40

###

TESTED ON: FGFR3 (Homo sapiens)
Sequence (P22607 23-806): as the sequence (P22607 23-806 G697C) above, with C675G counted along it
ASSAY NOTES: FRET-based Z′-Lyte kinase assay
STUDY CONDITIONS: Figure 1B curve fit
METRIC: pEC50
# pEC50: negative log10 of molar concentration; output just the value

So what's the measured pEC50 for this one? Cc1ccc(C(=O)Nc2ccc(CN3CCN(C)CC3)c(C(F)(F)F)c2)cc1C#Cc1cnc2[nH]ncc2c1 [GZD824] 8.09

###

TESTED ON: FGFR2‐N550K (Homo sapiens, UniProt P21802, N549K)
Sequence (P21802 22-822 isoform P21802-3 N550K limits assumed): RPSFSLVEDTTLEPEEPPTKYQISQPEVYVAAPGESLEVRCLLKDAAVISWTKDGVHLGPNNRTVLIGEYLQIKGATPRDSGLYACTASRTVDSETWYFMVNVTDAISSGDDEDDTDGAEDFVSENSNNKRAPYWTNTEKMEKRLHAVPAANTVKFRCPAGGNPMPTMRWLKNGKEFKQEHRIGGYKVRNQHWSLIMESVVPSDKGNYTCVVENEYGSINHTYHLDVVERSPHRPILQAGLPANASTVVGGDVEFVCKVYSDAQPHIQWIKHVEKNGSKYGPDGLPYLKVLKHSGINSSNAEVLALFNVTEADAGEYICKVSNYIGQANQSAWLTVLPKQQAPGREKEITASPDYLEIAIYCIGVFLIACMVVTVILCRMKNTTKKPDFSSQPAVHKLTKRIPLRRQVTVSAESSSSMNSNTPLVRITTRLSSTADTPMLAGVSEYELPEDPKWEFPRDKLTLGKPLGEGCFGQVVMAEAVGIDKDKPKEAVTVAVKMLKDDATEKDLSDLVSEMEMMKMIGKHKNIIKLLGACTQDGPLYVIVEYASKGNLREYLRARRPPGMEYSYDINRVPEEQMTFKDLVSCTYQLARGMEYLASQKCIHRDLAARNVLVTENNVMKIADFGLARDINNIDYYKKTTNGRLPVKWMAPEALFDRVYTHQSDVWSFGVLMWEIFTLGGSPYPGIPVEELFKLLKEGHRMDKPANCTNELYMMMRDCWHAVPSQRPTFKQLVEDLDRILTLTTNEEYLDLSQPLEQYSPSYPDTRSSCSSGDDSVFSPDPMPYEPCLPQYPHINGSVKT
ASSAY NOTES: KINOMEscan binding affinity assay
METRIC: Kd (nM)
Your answer is read as nM, so omit the unit and give the number.

Query for FGFR2‐N550K (Homo sapiens, UniProt P21802, N549K): what Kd does the record show for Cc1ccc(C(=O)Nc2ccc(CN3CCN(C)CC3)c(C(F)(F)F)c2)cc1C#Cc1cnc2[nH]ncc2c1 [GZD824] ? 17

###

Test system: Ba/F3‐FGFR1‐V561F
ASSAY NOTES: CCK-8 proliferation assay in Ba/F3 stable cells
Assay type: cell-based
STUDY CONDITIONS: Mus musculus, BaF3; CCK-8, 72 h; read-out: IC50 (μΜ) Ba/F3‐FGFR1‐V561F
METRIC: IC50 (µM)
Answer with a number only, understood to be in µM.

Reported IC50 for `CCN1CCN(c2ccc(Nc3cc(N(C)C(=O)Nc4c(Cl)c(OC)cc(OC)c4Cl)ncn3)cc2)CC1` : what is it? 4.25

###

System: MDA‐MB‐231
ASSAY NOTES: CCK-8 cell proliferation assay
Format: cell-based
STUDY CONDITIONS: Homo sapiens, MDA-MB-231, 72 h, read-out: antiproliferative IC50, MDA‐MB‐231, negative control; CCK-8, 72 h
METRIC: IC50

Which measured IC50 value corresponds to COCCNc1cc(NC(=O)N2CCCc3cc(CN4CCN(C)CC4=O)c(C=O)nc32)ncc1C#N [FGF401] ? > 10 µM

I'd like to know its IC50. The molecule in question is CCN1CCN(c2ccc(Nc3cc(N(C)C(=O)Nc4c(Cl)c(OC)cc(OC)c4Cl)ncn3)cc2)CC1 [BGJ398] > 10 µM

Can you look up the measured IC50 of Cc1ccc(C(=O)Nc2ccc(CN3CCN(C)CC3)c(C(F)(F)F)c2)cc1C#Cc1cnc2[nH]ncc2c1 [GZD824] for me? > 1 µM

###

TESTED ON: FGFR1 (Homo sapiens, UniProt P11362)
Sequence (P11362 22-822): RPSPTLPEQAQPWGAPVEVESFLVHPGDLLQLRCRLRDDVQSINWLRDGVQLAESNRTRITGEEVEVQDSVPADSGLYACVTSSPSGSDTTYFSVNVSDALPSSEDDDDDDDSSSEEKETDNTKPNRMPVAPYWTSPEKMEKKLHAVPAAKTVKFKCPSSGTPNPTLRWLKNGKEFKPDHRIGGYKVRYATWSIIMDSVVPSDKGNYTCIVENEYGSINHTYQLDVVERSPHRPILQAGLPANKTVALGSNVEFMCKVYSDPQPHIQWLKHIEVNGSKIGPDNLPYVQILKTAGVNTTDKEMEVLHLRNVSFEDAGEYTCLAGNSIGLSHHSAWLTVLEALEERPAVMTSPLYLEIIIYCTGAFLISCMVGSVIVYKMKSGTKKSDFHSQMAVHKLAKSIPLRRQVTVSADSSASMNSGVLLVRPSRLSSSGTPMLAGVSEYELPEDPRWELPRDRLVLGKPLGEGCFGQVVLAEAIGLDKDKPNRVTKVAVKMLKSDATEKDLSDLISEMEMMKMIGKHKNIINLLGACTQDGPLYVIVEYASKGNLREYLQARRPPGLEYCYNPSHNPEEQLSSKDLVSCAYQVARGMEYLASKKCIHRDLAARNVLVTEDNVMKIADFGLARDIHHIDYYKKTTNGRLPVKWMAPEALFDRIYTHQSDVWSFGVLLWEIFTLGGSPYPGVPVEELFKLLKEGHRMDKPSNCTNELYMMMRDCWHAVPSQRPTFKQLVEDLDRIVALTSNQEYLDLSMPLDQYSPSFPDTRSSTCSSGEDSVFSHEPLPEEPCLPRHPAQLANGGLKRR
ASSAY NOTES: FRET-based Z′-Lyte kinase assay
STUDY CONDITIONS: Figure 1B curve fit
METRIC: EC50
Note: a bare number is incomplete; add the unit.

Please report the recorded EC50 for Cc1ccc(C(=O)Nc2ccc(CN3CCN(C)CC3)c(C(F)(F)F)c2)cc1C#Cc1cnc2[nH]ncc2c1 [GZD824] . 4.82 nM

###

TESTED ON: FGFR3‐K650E (Homo sapiens, UniProt P22607, K650E)
Sequence (P22607 23-806 K650E): as the sequence (P22607 23-806 G697C) above, with K628E, C675G counted along it
ASSAY NOTES: KINOMEscan binding affinity assay
METRIC: Kd (µM)
# unit: µM | format: bare number

Which Kd value is on record for `Cc1ccc(C(=O)Nc2ccc(CN3CCN(C)CC3)c(C(F)(F)F)c2)cc1C#Cc1cnc2[nH]ncc2c1` ? 0.011

###

TESTED ON: FGFR1 (Homo sapiens, UniProt P11362)
Construct: purchased Invitrogen (Waltham, MA, USA)
ASSAY NOTES: KINOMEscan binding affinity assay
METRIC: Kd (nM)
Please state the figure in nM; there is no need to write the unit.

For FGFR1 (Homo sapiens, UniProt P11362), provide Kd of Cc1ccc(C(=O)Nc2ccc(CN3CCN(C)CC3)c(C(F)(F)F)c2)cc1C#Cc1cnc2[nH]ncc2c1 [GZD824] please. 7.3

###

TESTED ON: FGFR1 (Homo sapiens, UniProt P11362)
Construct: purchased Invitrogen (Waltham, MA, USA)
ASSAY NOTES: FRET-based Z′-Lyte kinase assay
Type: biochemical
METRIC: IC50 (nM)
Give the number; nM is assumed, so skip it.

Requested read-out: IC50. Entry: `Cc1ccc(C(=O)Nc2ccc(CN3CCN(C)CC3)c(C(F)(F)F)c2)cc1C#Cc1cnc2[nH]ncc2c1` 4.14

###

Test system: Ba/F3‐FGFR1‐V561M
ASSAY NOTES: CCK-8 proliferation assay in Ba/F3 stable cells
Format: cell-based
STUDY CONDITIONS: Mus musculus, BaF3; CCK-8, 72 h; read-out: IC50 (μΜ) Ba/F3‐FGFR1‐V561M
METRIC: IC50

Could you tell me which IC50 is on file for `CCN1CCN(c2ccc(Nc3cc(N(C)C(=O)Nc4c(Cl)c(OC)cc(OC)c4Cl)ncn3)cc2)CC1` ? 4.38 µM

###

Tested on: Ba/F3‐FGFR1‐K656N
ASSAY NOTES: CCK-8 proliferation assay in Ba/F3 stable cells
Format: cell-based
STUDY CONDITIONS: Mus musculus, BaF3, 72 h, read-out: IC50 (μΜ) Ba/F3‐FGFR1‐K656N
Method: The Ba/F3 cell lines stably expressing FGFR1, FGFR1‐V561M, FGFR1‐V561F, FGFR1‐K656N, and FGFR1‐K656E were self‐established through electroporation pCDNA3.1‐TEL plasmids using the Amaxa Cell Line Nucleofector Kit V (Lonza, Cologne, Germany). […] Cells were seeded in 96‐well plate in complete medium (1000–6000 cells/well) and cultured for overnight. […] Cell proliferation was analyzed by Cell Counting Kit 8 (CK04, Dojindo Laboratories, Japan) after co‐incubation for a further 72 h. […]
Here the recorded IC50 is given for each entry.
Number first, unit second: that is the form wanted.

CHEM SMILES	METRIC	RESULT
Cc1ccc(C(=O)Nc2ccc(CN3CCN(C)CC3)c(C(F)(F)F)c2)cc1C#Cc1cnc2[nH]ncc2c1	IC50	12 nM

Now consider a different compound.
Consider the compound `Cc1ccc(C(=O)Nc2ccc(CN3CCN(C)CC3)c(C(F)(F)F)c2)cc1C#Cc1cnc2cccnn12` and give its measured IC50. 47 nM

###

Test system: MKN‐1
ASSAY NOTES: CCK-8 cell proliferation assay
Assay type: cell-based
STUDY CONDITIONS: Homo sapiens, MKN-1, 72 h, read-out: antiproliferative IC50, MKN‐1
Method: The base medium for MDA‐MB‐453 cell line is DMEM medium (CORNING, USA). All other cell lines were cultured in RPMI‐1640 medium supplemented with 10% FBS, 100 U/ml of penicillin, and […] of streptomycin in 5% CO2 at 37℃. […] Cells were seeded in 96‐well plate in complete medium (1000–6000 cells/well) and cultured for overnight. […] Cell proliferation was analyzed by Cell Counting Kit 8 (CK04, Dojindo Laboratories, Japan) after co‐incubation for a further 72 h. […]
METRIC: pIC50
Note: pIC50 values are expressed as the negative base-10 logarithm of concentration in M.

Can you share its pIC50? I mean this compound: `Cc1ccc(C(=O)Nc2ccc(CN3CCN(C)CC3)c(C(F)(F)F)c2)cc1C#Cc1cnc2cccnn12` 6.12
